target: human ether-à-go-go-related gene (hERG) potassium channel (human, UniProt Q12809); assay: primary screen, population patch clamp on CHO cells stably expressing hERG; higher = less effect of the substance
Sequence (Q12809 whole entry, looked up): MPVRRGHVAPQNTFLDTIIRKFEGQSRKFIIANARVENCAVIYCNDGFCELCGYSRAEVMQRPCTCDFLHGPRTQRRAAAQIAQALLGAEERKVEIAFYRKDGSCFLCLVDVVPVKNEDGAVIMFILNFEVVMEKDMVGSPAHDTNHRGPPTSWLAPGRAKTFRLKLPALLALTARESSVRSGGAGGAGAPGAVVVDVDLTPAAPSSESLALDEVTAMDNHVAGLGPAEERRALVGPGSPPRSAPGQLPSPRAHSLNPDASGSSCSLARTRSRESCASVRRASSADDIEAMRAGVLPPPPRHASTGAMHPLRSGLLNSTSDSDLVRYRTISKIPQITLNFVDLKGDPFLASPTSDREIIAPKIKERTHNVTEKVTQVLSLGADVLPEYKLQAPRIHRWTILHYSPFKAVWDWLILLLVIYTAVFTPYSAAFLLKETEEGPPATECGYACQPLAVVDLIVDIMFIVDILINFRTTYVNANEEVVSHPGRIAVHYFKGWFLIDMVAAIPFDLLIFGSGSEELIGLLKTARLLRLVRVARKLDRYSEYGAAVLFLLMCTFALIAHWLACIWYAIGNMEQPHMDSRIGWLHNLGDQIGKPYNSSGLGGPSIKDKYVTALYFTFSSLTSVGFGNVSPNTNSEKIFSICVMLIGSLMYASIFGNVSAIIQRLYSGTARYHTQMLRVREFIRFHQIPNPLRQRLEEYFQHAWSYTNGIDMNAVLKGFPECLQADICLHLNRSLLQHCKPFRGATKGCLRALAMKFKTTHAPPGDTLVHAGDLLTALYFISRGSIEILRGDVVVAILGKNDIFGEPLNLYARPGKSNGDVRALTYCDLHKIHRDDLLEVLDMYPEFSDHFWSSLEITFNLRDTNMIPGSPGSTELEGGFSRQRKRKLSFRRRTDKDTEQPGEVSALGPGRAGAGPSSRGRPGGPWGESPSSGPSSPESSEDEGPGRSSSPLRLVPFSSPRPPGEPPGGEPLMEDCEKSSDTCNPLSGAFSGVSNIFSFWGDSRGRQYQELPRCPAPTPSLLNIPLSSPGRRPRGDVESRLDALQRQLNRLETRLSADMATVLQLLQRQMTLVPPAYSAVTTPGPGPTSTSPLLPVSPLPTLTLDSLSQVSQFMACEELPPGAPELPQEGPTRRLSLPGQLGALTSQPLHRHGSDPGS
About 14,000 (4.5%) of roughly 310,000 compounds showed an effect of 50% or more. The effect is printed as a negative number. The full list was thinned out, with strong results kept by preference.
Here the recorded hERG current change (%, negative = inhibition) at 10uM is given for each entry.
Give your result in % as a bare value.

The following molecules have reported results that may help.
molecule	recorded.number
CC(C)(C)NC(=O)c1ccc2c(c1)C1C3CCC(C3)C1C(c1ccccc1)N2 (stereo not shown)	5.59
CC1CCCCC1NC(=O)c1nnc(Cc2ccc(Cl)cc2)o1 (stereo not shown)	-9.72
CC(=O)Nc1nc2ccccc2[nH]1	-0.326
O=C(O)c1ccc(S(=O)(=O)c2ccccc2)cc1	11.5
O=C1c2ccccc2C(=O)C1c1ccc(Cl)cc1	8.89
Cc1cc(C)c(S(=O)(=O)N2CCN(C(=O)c3ccc4c(c3)OCO4)CC2)c(C)c1	-31.4

Problem: Given the molecule COc1ccc(/C=N/N=C2\SC(CC(=O)O)C(=O)N2c2ccccc2)c(OC)c1 (stereo not shown) , what is its reported hERG current change (%, negative = inhibition) at 10uM?
Result: 4.13

Problem: Given the molecule CCOC(=O)N1CCN(C(=O)C(NC(=O)c2ccc(CC)cc2)C(C)C)CC1 (stereo not shown) , what is its reported hERG current change (%, negative = inhibition) at 10uM?
Result: -19.5

Problem: Given the molecule CNC(=O)COC(=O)CCC(=O)c1ccc(Cl)cc1 , what is its reported hERG current change (%, negative = inhibition) at 10uM?
Result: 7.45

Problem: Given the molecule COS(=O)(=O)[O-].C[N+]1(C)CCC(=C(c2ccccc2)c2ccccc2)CC1 , what is its reported hERG current change (%, negative = inhibition) at 10uM?
Result: -71

----------
Here the recorded hERG current change (%, negative = inhibition) at 10uM is given for each entry.
target: human ether-à-go-go-related gene (hERG) potassium channel (human); test: primary screen, population patch clamp on CHO cells stably expressing hERG; higher = less effect of the substance
Out of some 310,000 compounds screened, about 14,000 (4.5%) showed an effect of 50% or more. The effect is printed as a negative number. This excerpt belongs to a sample that is enriched for strong results.
Give your result in % as a bare value.

The following compounds have reported results that may help.
compound	recorded.number
O=C(NCCc1c[nH]c2ccccc12)C(F)(F)F	3.79
COc1cc2c(cc1OC)C(C)N(S(=O)(=O)c1ccc(C)cc1)CC2 (stereo not drawn)	-15

Problem: Given the compound CCN1CCN(C(=S)Nc2cccc(C(F)(F)F)c2)CC1 , what is its reported hERG current change (%, negative = inhibition) at 10uM?
Result: -7.79

Problem: Given the compound Cc1ccc(NC(=O)CCC(=O)c2cccs2)cc1F , what is its reported hERG current change (%, negative = inhibition) at 10uM?
Result: 2.31

Problem: Given the compound COc1cc(OC)cc(C(=O)OCC(=O)NCCCc2ccccc2)c1 , what is its reported hERG current change (%, negative = inhibition) at 10uM?
Result: 12.2

Problem: Given the compound COc1cc(/C=N/n2cnnc2)ccc1OCc1ccccc1 , what is its reported hERG current change (%, negative = inhibition) at 10uM?
Result: 6.55

----------
Here the recorded hERG current change (%, negative = inhibition) at 10uM is given for each entry.
target: human ether-à-go-go-related gene (hERG) potassium channel (human, UniProt Q12809); experiment: primary screen, population patch clamp on CHO cells stably expressing hERG; higher = less effect of the substance
Out of some 310,000 compounds screened, about 14,000 (4.5%) showed an effect of 50% or more. The effect is printed as a negative number. What follows is part of a selection rich in strong results, with near analogues and random picks from the rest.
Give your result in % as a bare value.

The following molecules have reported results that may help.
molecule	recorded.number
Cc1ccc(-n2c(SCC(=O)Nc3nccs3)nc3c(c2=O)SCC3)cc1	0.0407
Cc1ccc(NC(=O)c2cccc(N3C(=O)C4C5C=CC(C5)C4C3=O)c2)cc1C (stereo not drawn)	-7.07
COc1cc(C)c(/C=C(\C#N)C(=O)Nc2ccc(C)cc2)cc1C(C)C	11.1
COc1ccc2c(c1)O[C@@]1(CCCC[C@@H]1C)CC2=O	-1.09
COCCn1c(SCC(=O)Nc2ccccc2OC)nc2ccccc2c1=O	-40.1
CCN1CSC(=S)N(Cc2ccccc2)C1	12.2
CN(C)CCNC(=O)c1cc2sc3ccccc3c2s1.Cl	-31.5
OC(CNCCc1ccccc1)c1ccccc1 (stereo not drawn)	-0.0558

Problem: Form entry - test system: human ether-à-go-go-related gene (hERG) potassium channel (human, UniProt Q12809); read-out: hERG current change (%, negative = inhibition) at 10uM; molecule: Cc1ccc(C(=O)OCC(=O)c2ccc(S(=O)(=O)N3CCCCC3)cc2)o1
Result: -20.3

Problem: Form entry - test system: human ether-à-go-go-related gene (hERG) potassium channel (human, UniProt Q12809); read-out: hERG current change (%, negative = inhibition) at 10uM; molecule: NC(=O)c1ccc(NC(=O)CCN2C(=O)c3ccccc3C2=O)cc1
Result: 16

Problem: Form entry - test system: human ether-à-go-go-related gene (hERG) potassium channel (human, UniProt Q12809); read-out: hERG current change (%, negative = inhibition) at 10uM; molecule: COc1ccc(NC(=O)CSc2nc3ccccc3c(=O)n2CCCN2CCOCC2)c(OC)c1
Result: -34.6

Problem: Form entry - test system: human ether-à-go-go-related gene (hERG) potassium channel (human, UniProt Q12809); read-out: hERG current change (%, negative = inhibition) at 10uM; molecule: COCCn1c(SCC(=O)Nc2ccc(OC)cc2OC)nc2ccccc2c1=O
Result: 10.5

Problem: Form entry - test system: human ether-à-go-go-related gene (hERG) potassium channel (human, UniProt Q12809); read-out: hERG current change (%, negative = inhibition) at 10uM; molecule: CCOC(=O)c1[nH]c2c(c1C)C(=O)CC(c1ccc(OC)c(OC)c1)C2 (stereo not drawn)
Result: -9.84

Problem: Form entry - test system: human ether-à-go-go-related gene (hERG) potassium channel (human, UniProt Q12809); read-out: hERG current change (%, negative = inhibition) at 10uM; molecule: CCN(CC)S(=O)(=O)c1ccc(N2CCCC2)c(NC(=O)C2=COCCO2)c1
Result: -40

Problem: Form entry - test system: human ether-à-go-go-related gene (hERG) potassium channel (human, UniProt Q12809); read-out: hERG current change (%, negative = inhibition) at 10uM; molecule: CCn1c(=O)cc(OCC(=O)N2CCN(c3ccc(F)cc3)CC2)c2ccccc21
Result: -69.8

Problem: Form entry - test system: human ether-à-go-go-related gene (hERG) potassium channel (human, UniProt Q12809); read-out: hERG current change (%, negative = inhibition) at 10uM; molecule: CN(C)CCCNC(=O)c1cc2c3ccccc3n(C)c2s1
Result: -40.1

Problem: Form entry - test system: human ether-à-go-go-related gene (hERG) potassium channel (human, UniProt Q12809); read-out: hERG current change (%, negative = inhibition) at 10uM; molecule: Cc1ccc(C)c(S(=O)(=O)N2CCC3(CC2)OCCN3S(=O)(=O)c2cccs2)c1
Result: 5.64

Problem: Form entry - test system: human ether-à-go-go-related gene (hERG) potassium channel (human, UniProt Q12809); read-out: hERG current change (%, negative = inhibition) at 10uM; molecule: CCn1c(SCC(=O)Nc2ccccc2OC)nc2ccccc2c1=O
Result: -11.9

Problem: Form entry - test system: human ether-à-go-go-related gene (hERG) potassium channel (human, UniProt Q12809); read-out: hERG current change (%, negative = inhibition) at 10uM; molecule: CCOC(=O)c1nn(-c2ccc(F)cc2)c(=O)cc1OCC(=O)N1CCN(c2ccccc2)CC1;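 further: peak tail current of the secondary pulse compared with the same well before compound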
Result: -15.6

Problem: Form entry - test system: human ether-à-go-go-related gene (hERG) potassium channel (human, UniProt Q12809); read-out: hERG current change (%, negative = inhibition) at 10uM; molecule: COCCNC(=O)c1cc2sc3ccccc3c2s1;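 further: peak tail current of the secondary pulse compared with the same well before compound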
Result: -8.28

Problem: Form entry - test system: human ether-à-go-go-related gene (hERG) potassium channel (human, UniProt Q12809); read-out: hERG current change (%, negative = inhibition) at 10uM; molecule: CCN1CCN(C(=O)COc2cc(=O)n(CC)c3ccccc23)CC1;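 further: peak tail current of the secondary pulse compared with the same well before compound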
Result: -2.67

----------
Here the recorded hERG current change (%, negative = inhibition) at 10uM is given for each entry.
molecular target: human ether-à-go-go-related gene (hERG) potassium channel (human, UniProt Q12809); test: primary screen, population patch clamp on CHO cells stably expressing hERG; higher = less effect of the substance;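 further: peak tail current of the secondary pulse compared with the same well before compound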
The campaign covered roughly 310,000 compounds. About 14,000 (4.5%) showed an effect of 50% or more. Effects have a minus sign here. This is one part of a sample in which strong results are shown more often than they occur.
Give your result in % as a bare value.

The following molecules have reported results that may help.
COc1ccccc1CN(Cc1ccco1)S(=O)(=O)c1ccc(-n2cnnn2)c(OC)c1 7.21
N#C/C(=C/c1ccc(Sc2nc3ccccc3[nH]2)o1)c1cccc(Br)c1 21.3
N#Cc1ccc(C(=O)OCCCc2cc3ccccc3c(=O)o2)cc1 -69.4
CC(C)(OC(=O)c1ccc(C(F)(F)F)cc1)c1cc2ccccc2c(=O)o1 14.6
COc1cc2cc(CCCOC(=O)c3ccc(C#N)cc3)oc(=O)c2cc1OC -65

Problem: Given the molecule CC(C)(OC(=O)c1ccc(C#N)cc1)c1cc2ccccc2c(=O)o1 , what is its reported hERG current change (%, negative = inhibition) at 10uM?
Result: -73.1
